// provenance: ChEMBL document CHEMBL4513216

Tested on: Plasmodium berghei
Test: Screen against P. berghei liver stage (PbLuc), transformed with Luciferase, at 2uM
Assay type: functional, HepG2
Details: tested at 2 uM
Among all 68,000 compounds or so, about 2,700 (4%) showed an effect of 50% or more. The full list was thinned out, with strong results kept by preference.
Using INHIBITION as the sorting value, the categories are zone 1 (below 10%), zone 2 (10% to below 20%), zone 3 (20% or more)

Cc1noc2nc(C3CCN(Cc4ccncc4)CC3)cc(C(F)F)c12 | zone 2
COc1ccc(C2=CCN(C(=O)C3CCN(C)C(=O)C3)CC2)cc1 (stereo unspecified) | zone 2
O=C1N(CCc2ccccc2)CCCC12CCN(C(CO)CO)C2 (stereo unspecified) | zone 3
COCCC(=O)N[C@H]1CC[C@H](Nc2nccc(-c3ccncc3)n2)C1 | zone 3
CS(=O)(=O)N1CCC2(CCCN(CCCc3ccccc3)C2=O)C1 (stereo unspecified) | zone 1

Where would Cc1cccc2cc(C(=O)N3CCSCC3)n(C)c12 land among the classes by reported INHIBITION?
zone 2

Where would CC1(C)CC(N(Cc2ccccc2)Cc2cccnc2)CC(C)(C)N1 land among the classes by reported INHIBITION?
zone 3

Where would Cc1cnn(CCNCc2nc(-c3ccccn3)no2)c1 land among the classes by reported INHIBITION?
zone 2

Where would NC(=O)CC1CCN(C(=O)NCc2ccc(-c3ccn[nH]3)cc2)CC1 land among the classes by reported INHIBITION?
zone 1

Where would O=C1N(CCCc2ccccc2)CCCC12CCN(C(CO)CO)C2 (stereo unspecified) land among the classes by reported INHIBITION?
zone 1
